Target: Inositol polyphosphate-5-phosphatase A (Homo sapiens, UniProt Q14642)
Sequence (Q14642 whole entry): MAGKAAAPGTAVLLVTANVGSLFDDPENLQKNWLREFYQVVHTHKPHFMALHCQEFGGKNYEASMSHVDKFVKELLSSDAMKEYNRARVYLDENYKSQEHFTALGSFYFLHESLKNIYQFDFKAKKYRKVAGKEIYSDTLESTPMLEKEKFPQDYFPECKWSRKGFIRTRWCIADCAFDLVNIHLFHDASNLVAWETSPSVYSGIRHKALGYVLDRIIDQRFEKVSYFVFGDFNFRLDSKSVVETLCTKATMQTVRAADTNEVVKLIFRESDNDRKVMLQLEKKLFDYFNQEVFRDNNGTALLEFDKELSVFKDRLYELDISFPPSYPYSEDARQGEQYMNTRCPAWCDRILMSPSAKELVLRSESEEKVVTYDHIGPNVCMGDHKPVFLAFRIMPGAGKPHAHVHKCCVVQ
Assay: Inhibition of recombinant human brain INPP5A expressed in Escherichia coli incubated for 10 mins by malachite green reagent based phosphate assay
Let's look at some compounds and their measured IC50.
The reply should contain only the number, in µM.

Some solved cases for reference:
[[record]]
smiles_entry = "O=P(O)(O)Oc1cc(OP(=O)(O)O)c(OP(=O)(O)O)c(OP(=O)(O)O)c1"
experimental_endpoint = "IC50"
result_number = 78

[[record]]
smiles_entry = "O=P(O)(O)Oc1cc(OP(=O)(O)O)cc(OP(=O)(O)O)c1"
experimental_endpoint = "IC50"
result_number = 16

[[record]]
smiles_entry = "O=P(O)(O)Oc1ccc(OP(=O)(O)O)c(OP(=O)(O)O)c1OP(=O)(O)O"
experimental_endpoint = "IC50"
result_number = 98

[[record]]
smiles_entry = "O=P(O)(O)Oc1ccc(OP(=O)(O)O)c(OP(=O)(O)O)c1"
experimental_endpoint = "IC50"
result_number = 14

[[record]]
smiles_entry = "O=P(O)(O)Oc1cccc(OP(=O)(O)O)c1OP(=O)(O)O"
experimental_endpoint = "IC50"
result_number = 86


In plain terms, `O=P(O)(O)Oc1cc(OP(=O)(O)O)c(OP(=O)(O)O)cc1OP(=O)(O)O` has a documented IC50 of 4

----------
Biological target: Phosphatidylinositol 3,4,5-trisphosphate 5-phosphatase 2 (Homo sapiens, UniProt O15357)
Sequence (O15357 whole entry): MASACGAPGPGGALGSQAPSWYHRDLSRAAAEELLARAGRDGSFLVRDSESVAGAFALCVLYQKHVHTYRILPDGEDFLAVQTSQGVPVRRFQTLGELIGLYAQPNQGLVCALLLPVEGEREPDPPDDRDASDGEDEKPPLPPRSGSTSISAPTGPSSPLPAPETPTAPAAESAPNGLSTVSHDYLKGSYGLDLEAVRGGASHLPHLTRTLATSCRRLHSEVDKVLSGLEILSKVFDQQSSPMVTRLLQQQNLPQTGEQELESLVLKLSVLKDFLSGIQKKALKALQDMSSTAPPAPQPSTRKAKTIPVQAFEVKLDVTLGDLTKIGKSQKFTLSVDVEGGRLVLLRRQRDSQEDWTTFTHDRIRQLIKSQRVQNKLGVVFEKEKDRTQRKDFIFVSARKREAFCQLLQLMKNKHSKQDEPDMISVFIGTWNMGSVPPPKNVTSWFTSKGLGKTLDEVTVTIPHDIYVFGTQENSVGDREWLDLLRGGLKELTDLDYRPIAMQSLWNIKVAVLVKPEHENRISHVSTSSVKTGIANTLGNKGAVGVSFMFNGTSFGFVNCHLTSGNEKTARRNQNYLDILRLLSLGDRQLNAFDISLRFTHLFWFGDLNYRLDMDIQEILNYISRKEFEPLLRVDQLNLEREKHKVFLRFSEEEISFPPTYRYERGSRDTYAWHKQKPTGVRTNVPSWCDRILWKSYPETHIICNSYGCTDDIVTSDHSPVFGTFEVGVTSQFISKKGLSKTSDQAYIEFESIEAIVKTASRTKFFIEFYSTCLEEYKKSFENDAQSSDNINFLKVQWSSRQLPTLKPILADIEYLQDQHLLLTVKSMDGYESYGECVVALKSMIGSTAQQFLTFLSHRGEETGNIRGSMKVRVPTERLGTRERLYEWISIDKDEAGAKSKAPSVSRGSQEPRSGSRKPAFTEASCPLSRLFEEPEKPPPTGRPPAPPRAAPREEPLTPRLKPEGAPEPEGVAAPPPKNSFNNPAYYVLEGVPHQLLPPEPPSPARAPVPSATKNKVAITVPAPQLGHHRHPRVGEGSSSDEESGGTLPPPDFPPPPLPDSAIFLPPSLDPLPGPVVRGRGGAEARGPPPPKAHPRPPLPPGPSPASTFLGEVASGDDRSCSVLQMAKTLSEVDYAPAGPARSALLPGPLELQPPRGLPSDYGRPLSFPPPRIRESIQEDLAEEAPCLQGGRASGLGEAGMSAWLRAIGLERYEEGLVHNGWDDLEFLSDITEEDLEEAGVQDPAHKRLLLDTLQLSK
Experiment: Displacement of 2FAMInsP5 from recombinant human N-terminal His-tagged SHIP2 (419 to 832 residues) expressed in Escherichia coli Rosetta2 (DE3) cells by fluorescence polarization assay
pIC50: −log10 of the molar value.
We use 5 as the dividing line for pIC50: on or above the line is 1 (yes), below is 0 (no).

Illustrative cases are given below, each with its answer.
[[record]]
smiles_entry = "O=P(O)(O)Oc1cc(OP(=O)(O)O)c(OP(=O)(O)O)cc1OP(=O)(O)O"
group = "1 (yes)"

[[record]]
smiles_entry = "O=P(O)(O)Oc1ccc(OP(=O)(O)O)c(OP(=O)(O)O)c1OP(=O)(O)O"
group = "1 (yes)"

[[record]]
smiles_entry = "O=P(O)(O)Oc1cccc(OP(=O)(O)O)c1OP(=O)(O)O"
group = "0 (no)"


**Query** Quick check, pIC50 >= 5? `O=P(O)(O)Oc1cc(OP(=O)(O)O)c(OP(=O)(O)O)c(OP(=O)(O)O)c1`
**Result** 1 (yes)

**Query** Please check the record `O=P(O)(O)Oc1ccc(OP(=O)(O)O)c(OP(=O)(O)O)c1` and state if its pIC50 is at or above 5.
**Result** 1 (yes)
